The measurements presented in this section are drawn from PubChem BioAssay AID1963961.

As shown below, each of these compounds has a reported viability, T/C value.
Test system: K98450-129-R-PDC multicell spheroids, viability
protocol.details: Anticancer human tumor K98450-129-R-PDC patient-derived colon adenocarcinoma cell line growth inhibition [PI3K]
particulars: second compound 0.316 µM; first compound 0.0949 µM; stronger effect = lower value

Exercise: May I ask what viability, T/C has been recorded for Cn1cnc2c(F)c(Nc3ccc(Br)cc3Cl)c(C(=O)NOCCO)cc21 + COc1c(OCCCN2CCOCC2)ccc2c3n(c(=NC(=O)c4cnc(N)nc4)nc12)CCN3 ?
Solution: 47.8%

Exercise: May I ask what viability, T/C has been recorded for Cn1cnc2c(F)c(Nc3ccc(Br)cc3Cl)c(C(=O)NOCCO)cc21 + CC(Nc1ncnc2nc[nH]c12)c1cc2cccc(Cl)c2c(=O)n1-c1ccccc1 ?
Solution: 80.2%

Exercise: May I ask what viability, T/C has been recorded for Cn1cnc2c(F)c(Nc3ccc(Br)cc3Cl)c(C(=O)NOCCO)cc21 + Cc1nc(NC(=O)N2CCCC2C(N)=O)sc1-c1ccnc(C(C)(C)C(F)(F)F)c1 ?
Solution: 79.1%

Exercise: May I ask what viability, T/C has been recorded for Cn1cnc2c(F)c(Nc3ccc(Br)cc3Cl)c(C(=O)NOCCO)cc21 + CC(Nc1ccc2c(c1)OCCn1cc(N3C(=O)OCC3C(F)F)nc1-2)C(N)=O ?
Solution: 82.5%

====

Test system: K98450-129-R-PDC multicell spheroids, viability
protocol.details: Anticancer human tumor K98450-129-R-PDC cell line growth inhibition [PI3K];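 further: spheroids exposed to agents for seven days before read-out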
particulars: second compound 0.0316 µM; first compound 0.01 µM; stronger effect = lower value
readout: viability, T/C

Consider the following illustrative entries.
# compound, value.measured
data = [
    ("CCN1CCN(Cc2ccc(Nc3ncc(F)c(-c4cc(F)c5nc(C)n(C(C)C)c5c4)n3)nc2)CC1 + CC(Nc1ncnc2nc[nH]c12)c1cc2cccc(Cl)c2c(=O)n1-c1ccccc1", "102%"),
    ("CC(C)n1nc(-c2ccc3oc(N)nc3c2)c2c(N)ncnc21 + CC(Nc1ccc2c(c1)OCCn1cc(N3C(=O)OCC3C(F)F)nc1-2)C(N)=O", "94.5%"),
]

Exercise: May I ask what viability, T/C has been recorded for Cn1ncnc1[C@H]1c2n[nH]c(=O)c3cc(F)cc(c23)N[C@@H]1c1ccc(F)cc1 + COc1c(OCCCN2CCOCC2)ccc2c3n(c(=NC(=O)c4cnc(N)nc4)nc12)CCN3 ?
Solution: 90.6%

Exercise: May I ask what viability, T/C has been recorded for CCN1CCN(Cc2ccc(Nc3ncc(F)c(-c4cc(F)c5nc(C)n(C(C)C)c5c4)n3)nc2)CC1 + Cc1nc(NC(=O)N2CCCC2C(N)=O)sc1-c1ccnc(C(C)(C)C(F)(F)F)c1 ?
Solution: 97.7%

Exercise: May I ask what viability, T/C has been recorded for CC(=O)c1c(C)c2cnc(Nc3ccc(N4CCNCC4)cn3)nc2n(C2CCCC2)c1=O + Cc1nc(NC(=O)N2CCCC2C(N)=O)sc1-c1ccnc(C(C)(C)C(F)(F)F)c1 ?
Solution: 104%

Exercise: May I ask what viability, T/C has been recorded for CC(=O)c1c(C)c2cnc(Nc3ccc(N4CCNCC4)cn3)nc2n(C2CCCC2)c1=O + COc1c(OCCCN2CCOCC2)ccc2c3n(c(=NC(=O)c4cnc(N)nc4)nc12)CCN3 ?
Solution: 87.6%

Exercise: May I ask what viability, T/C has been recorded for CC(C)n1nc(-c2ccc3oc(N)nc3c2)c2c(N)ncnc21 + COc1c(OCCCN2CCOCC2)ccc2c3n(c(=NC(=O)c4cnc(N)nc4)nc12)CCN3 ?
Solution: 67.9%

Exercise: May I ask what viability, T/C has been recorded for CC(C)n1nc(-c2ccc3oc(N)nc3c2)c2c(N)ncnc21 + CC(Nc1ncnc2nc[nH]c12)c1cc2cccc(Cl)c2c(=O)n1-c1ccccc1 ?
Solution: 79%

Exercise: May I ask what viability, T/C has been recorded for CC(=O)c1c(C)c2cnc(Nc3ccc(N4CCNCC4)cn3)nc2n(C2CCCC2)c1=O + CC(Nc1ccc2c(c1)OCCn1cc(N3C(=O)OCC3C(F)F)nc1-2)C(N)=O ?
Solution: 94.9%

Exercise: May I ask what viability, T/C has been recorded for CC(C)n1nc(-c2ccc3oc(N)nc3c2)c2c(N)ncnc21 + Cc1nc(NC(=O)N2CCCC2C(N)=O)sc1-c1ccnc(C(C)(C)C(F)(F)F)c1 ?
Solution: 91.2%

Exercise: May I ask what viability, T/C has been recorded for CCN1CCN(Cc2ccc(Nc3ncc(F)c(-c4cc(F)c5nc(C)n(C(C)C)c5c4)n3)nc2)CC1 + CC(Nc1ccc2c(c1)OCCn1cc(N3C(=O)OCC3C(F)F)nc1-2)C(N)=O ?
Solution: 100%

Exercise: May I ask what viability, T/C has been recorded for Cn1ncnc1[C@H]1c2n[nH]c(=O)c3cc(F)cc(c23)N[C@@H]1c1ccc(F)cc1 + Cc1nc(NC(=O)N2CCCC2C(N)=O)sc1-c1ccnc(C(C)(C)C(F)(F)F)c1 ?
Solution: 97.3%

====

System: K98450-129-R-PDC multicell spheroids, viability
protocol.details: Anticancer human tumor K98450-129-R-PDC cell line growth inhibition [PI3K];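 further: spheroids exposed to agents for seven days before read-out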
particulars: second compound 1 µM; first compound 0.0316 µM; stronger effect = lower value
readout: viability, T/C (%)
The figure you give is taken to be in %; do not add the unit.

Consider the following illustrative entries.
# compound, unit.tag, viability, T/C
data = [
    ("Cn1ncc(Cl)c1-c1cc(C(=O)NC(CN)Cc2cccc(F)c2)sc1Cl (stereo unspecified) + CC(Nc1ccc2c(c1)OCCn1cc(N3C(=O)OCC3C(F)F)nc1-2)C(N)=O", "%", 87.1),
    ("Cn1ncc(Cl)c1-c1cc(C(=O)NC(CN)Cc2cccc(F)c2)sc1Cl (stereo unspecified) + CC(Nc1ncnc2nc[nH]c12)c1cc2cccc(Cl)c2c(=O)n1-c1ccccc1", "%", 95.7),
    ("CCN1CCN(Cc2ccc(Nc3ncc(F)c(-c4cc(F)c5nc(C)n(C(C)C)c5c4)n3)nc2)CC1 + COc1c(OCCCN2CCOCC2)ccc2c3n(c(=NC(=O)c4cnc(N)nc4)nc12)CCN3", "%", 45.8),
]

Exercise: May I ask what viability, T/C has been recorded for Cn1ncnc1[C@H]1c2n[nH]c(=O)c3cc(F)cc(c23)N[C@@H]1c1ccc(F)cc1 + CC(Nc1ncnc2nc[nH]c12)c1cc2cccc(Cl)c2c(=O)n1-c1ccccc1 ?
Solution: 94.5

Exercise: May I ask what viability, T/C has been recorded for CC(Cn1ccc(-c2ccc(C#N)c(Cl)c2)n1)NC(=O)c1cc(C(C)O)[nH]n1 (stereo unspecified) + Cc1nc(NC(=O)N2CCCC2C(N)=O)sc1-c1ccnc(C(C)(C)C(F)(F)F)c1 ?
Solution: 86.4

Exercise: May I ask what viability, T/C has been recorded for C#Cc1c(F)ccc2cc(O)cc(-c3ncc4c(N5CC6CCC(C5)N6)nc(OCC56CCCN5CC(F)C6)nc4c3F)c12 (stereo unspecified) + CC(Nc1ccc2c(c1)OCCn1cc(N3C(=O)OCC3C(F)F)nc1-2)C(N)=O ?
Solution: 86

Exercise: May I ask what viability, T/C has been recorded for CC1(C)CCC(Nc2ncc(C(F)(F)F)c(-c3c[nH]c4c(P(C)(C)=O)c(C#N)ccc34)n2)CN1 (stereo unspecified) + COc1c(OCCCN2CCOCC2)ccc2c3n(c(=NC(=O)c4cnc(N)nc4)nc12)CCN3 ?
Solution: 51.6

Exercise: May I ask what viability, T/C has been recorded for CC1(C)CCC(Nc2ncc(C(F)(F)F)c(-c3c[nH]c4c(P(C)(C)=O)c(C#N)ccc34)n2)CN1 (stereo unspecified) + CC(Nc1ncnc2nc[nH]c12)c1cc2cccc(Cl)c2c(=O)n1-c1ccccc1 ?
Solution: 107

Exercise: May I ask what viability, T/C has been recorded for Cn1ncnc1[C@H]1c2n[nH]c(=O)c3cc(F)cc(c23)N[C@@H]1c1ccc(F)cc1 + CC(Nc1ccc2c(c1)OCCn1cc(N3C(=O)OCC3C(F)F)nc1-2)C(N)=O ?
Solution: 93.6

Exercise: May I ask what viability, T/C has been recorded for CC1(C)CCC(CN2CCN(c3ccc(C(=O)NS(=O)(=O)c4ccc(NCC5CCOCC5)c([N+](=O)[O-])c4)c(Oc4cnc5[nH]ccc5c4)c3)CC2)=C(c2ccc(Cl)cc2)C1 + Cc1nc(NC(=O)N2CCCC2C(N)=O)sc1-c1ccnc(C(C)(C)C(F)(F)F)c1 ?
Solution: 88.4

Exercise: May I ask what viability, T/C has been recorded for CC(C)n1nc(-c2ccc3oc(N)nc3c2)c2c(N)ncnc21 + Cc1nc(NC(=O)N2CCCC2C(N)=O)sc1-c1ccnc(C(C)(C)C(F)(F)F)c1 ?
Solution: 81.9

====

As shown below, each of these compounds has a reported viability, T/C value.
Tested on: K98450-129-R-PDC multicell spheroids, viability
protocol.details: Anticancer human tumor K98450-129-R-PDC cell line growth inhibition [PI3K];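 further: spheroids exposed to agents for seven days before read-out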
particulars: second compound 0.0316 µM; first compound 0.3 µM; stronger effect = lower value
The figure you give is taken to be in %; do not add the unit.

Consider the following illustrative entries.
# compound, viability, T/C (%)
rows = [
    ("Cn1cnc2c(F)c(Nc3ccc(Br)cc3Cl)c(C(=O)NOCCO)cc21 + Cc1nc(NC(=O)N2CCCC2C(N)=O)sc1-c1ccnc(C(C)(C)C(F)(F)F)c1", 78.3),
    ("Cn1cnc2c(F)c(Nc3ccc(Br)cc3Cl)c(C(=O)NOCCO)cc21 + CC(Nc1ccc2c(c1)OCCn1cc(N3C(=O)OCC3C(F)F)nc1-2)C(N)=O", 75.3),
    ("Cn1cnc2c(F)c(Nc3ccc(Br)cc3Cl)c(C(=O)NOCCO)cc21 + COc1c(OCCCN2CCOCC2)ccc2c3n(c(=NC(=O)c4cnc(N)nc4)nc12)CCN3", 50.2),
]

Exercise: May I ask what viability, T/C has been recorded for Cn1cnc2c(F)c(Nc3ccc(Br)cc3Cl)c(C(=O)NOCCO)cc21 + CC(Nc1ncnc2nc[nH]c12)c1cc2cccc(Cl)c2c(=O)n1-c1ccccc1 ?
Solution: 70.7
